Target: purified HLA DRB1*0701 (human)
Experiment: competitive inhibition of 125I-labeled peptide binding to purified HLA
ENDPOINT_NAME: pIC50
Bear in mind: pIC50 is minus log10 of a mol/L concentration; give just that figure.

Specify reported pIC50 for the binder shown: RREVHIYYLEKANKI (modifications not checked) [Flu.PA.127 peptide …] 7.64
